Target: UniProt P32245
Assay: Antagonist activity at MC4R assessed as inhibition of alpha-MSH-stimulated cAMP release
Measurement name: IC50

Answered examples (2):
* CC(C)N1C[C@H](C(=O)N2CCN(C3(CNCc4ccncc4)CCCCC3)CC2)[C@@H](c2ccc(Cl)cc2)C1 | 410 nM
* COc1ccc(CNCC2(N3CCN(C(=O)[C@H]4CN(C(C)C)C[C@@H]4c4ccc(Cl)cc4)CC3)CCCCC2)cc1F | 48 nM

Now look at this one.
Prompt: State the measured IC50 (UniProt P32245) of O=C([C@H]1CN(C2CCCCC2)C[C@@H]1c1ccc(Cl)cc1)N1CCN(C2(CNCc3ccccc3)CCCCC2)CC1
Completion: 130 nM

###

Molecular target: Melanocortin receptor 4 (Homo sapiens, UniProt P32245)
Sequence (P32245 whole entry): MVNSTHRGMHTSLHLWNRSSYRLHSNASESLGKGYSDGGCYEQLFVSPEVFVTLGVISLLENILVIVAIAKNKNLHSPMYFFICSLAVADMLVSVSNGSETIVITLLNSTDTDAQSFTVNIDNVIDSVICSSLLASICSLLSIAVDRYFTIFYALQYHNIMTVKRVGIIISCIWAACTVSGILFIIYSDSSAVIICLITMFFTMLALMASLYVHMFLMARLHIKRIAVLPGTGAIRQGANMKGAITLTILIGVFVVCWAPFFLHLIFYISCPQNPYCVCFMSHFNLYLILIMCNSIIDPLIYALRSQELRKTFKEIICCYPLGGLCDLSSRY
Test: Agonist activity at MC4R assessed as stimulation of cAMP release relative to alphaMSH
Assay type: functional
Field: label. Allowed values: 1 (Intrinsic activity < 20%) or -1 (Intrinsic activity >= 20%).

* O=C([C@H]1CN(C2CCCC2)C[C@@H]1c1ccc(Cl)cc1)N1CCN(C2(CNCc3ccccc3)CCCCC2)CC1 | -1
* CC(C)N1C[C@H](C(=O)N2CCN(C3(CNCc4ccoc4)CCCCC3)CC2)[C@@H](c2ccc(Cl)cc2)C1 | -1
* CCCC(=O)N1C[C@H](C(=O)N2CCN(C3(CNCc4ccccc4)CCCCC3)CC2)[C@@H](c2ccc(Cl)cc2)C1 | 1
* O=C([C@H]1CN(C2CCOCC2)C[C@@H]1c1ccc(Cl)cc1)N1CCN(C2(CNCc3ccccc3)CCCCC2)CC1 | -1
* CC(C)N1C[C@H](C(=O)N2CCN(C3(CNCc4ccco4)CCCCC3)CC2)[C@@H](c2ccc(Cl)cc2)C1 | -1

Prompt: Decide: Intrinsic activity of CC(C)N1C[C@H](C(=O)N2CCN(C3(CNCc4ccc5c(c4)OCO5)CCCCC3)CC2)[C@@H](c2ccc(Cl)cc2)C1 strictly below 20%?
Completion: 1

Prompt: Decide: Intrinsic activity of CC(C)N1C[C@H](C(=O)N2CCN(C3(CNCc4ccc(C(F)(F)F)cc4)CCCCC3)CC2)[C@@H](c2ccc(Cl)cc2)C1 strictly below 20%?
Completion: 1

###

Molecular target: Melanocortin receptor 3 (Homo sapiens, UniProt P41968)
Sequence (P41968 whole entry): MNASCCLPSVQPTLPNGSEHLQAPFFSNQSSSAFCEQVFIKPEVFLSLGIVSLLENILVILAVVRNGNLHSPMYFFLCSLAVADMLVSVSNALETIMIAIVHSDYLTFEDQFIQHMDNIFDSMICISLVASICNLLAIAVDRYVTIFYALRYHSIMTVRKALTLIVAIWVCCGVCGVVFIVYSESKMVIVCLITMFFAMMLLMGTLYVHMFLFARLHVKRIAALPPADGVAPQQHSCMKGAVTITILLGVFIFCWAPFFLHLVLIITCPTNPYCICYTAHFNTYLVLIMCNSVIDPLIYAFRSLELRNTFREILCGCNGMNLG
Measurement name: pKi
Lab note: report pKi as minus log10 of the concentration in molar units, number only.

Prompt: State the measured pKi (Melanocortin receptor 3 (Homo sapiens, UniProt P41968)) of COc1ccc(CNCC2(N3CCN(C(=O)[C@H]4CN(C(C)C)C[C@@H]4c4ccc(Cl)cc4)CC3)CCCCC2)cc1F
Completion: 6.12

###

Target: Melanocortin receptor 4 (Homo sapiens, UniProt P32245)
Experiment: Agonist activity at MC4R assessed as stimulation of cAMP release relative to alphaMSH
Format: functional
// reported Intrinsic activity per item
Dear colleague, please return just the value in %, with no unit written.

Answered examples (5):
* CC(C)N1C[C@H](C(=O)N2CCN(C3(CNCc4ccc(N(C)C)cc4)CCCCC3)CC2)[C@@H](c2ccc(Cl)cc2)C1 | 16
* CC(C)N1C[C@H](C(=O)N2CCN(C3(CNCc4ccc(Cl)cc4)CCCCC3)CC2)[C@@H](c2ccc(Cl)cc2)C1 | 29
* O=C(C1CCCC1)N1C[C@H](C(=O)N2CCN(C3(CNCc4ccccc4)CCCCC3)CC2)[C@@H](c2ccc(Cl)cc2)C1 | 26
* CC(C)N1C[C@H](C(=O)N2CCN(C3(CNCc4cccnc4)CCCCC3)CC2)[C@@H](c2ccc(Cl)cc2)C1 | 72
* CC(C)N1C[C@H](C(=O)N2CCN(C3(CNS(=O)(=O)c4ccccc4)CCCCC3)CC2)[C@@H](c2ccc(Cl)cc2)C1 | 20

Prompt: State its Intrinsic activity: CC(C)N1C[C@H](C(=O)N2CCN(C3(CNCc4ccccn4)CCCCC3)CC2)[C@@H](c2ccc(Cl)cc2)C1
Completion: 34

Prompt: State its Intrinsic activity: COc1cccc(CNCC2(N3CCN(C(=O)[C@H]4CN(C(C)C)C[C@@H]4c4ccc(Cl)cc4)CC3)CCCCC2)c1
Completion: 39

Prompt: State its Intrinsic activity: CC(=O)Nc1ccc(CNCC2(N3CCN(C(=O)[C@H]4CN(C(C)C)C[C@@H]4c4ccc(Cl)cc4)CC3)CCCCC2)cc1
Completion: 27

Prompt: State its Intrinsic activity: COc1ccc(CNCC2(N3CCN(C(=O)[C@H]4CN(C(C)C)C[C@@H]4c4ccc(Cl)cc4)CC3)CCCCC2)cc1F
Completion: 10

Prompt: State its Intrinsic activity: CCC(=O)N1C[C@H](C(=O)N2CCN(C3(CNCc4ccccc4)CCCCC3)CC2)[C@@H](c2ccc(Cl)cc2)C1
Completion: 19

Prompt: State its Intrinsic activity: CC(C)N1C[C@H](C(=O)N2CCN(C3(CNCc4ccc(F)cc4)CCCCC3)CC2)[C@@H](c2ccc(Cl)cc2)C1
Completion: 61

Prompt: State its Intrinsic activity: CC(C)C(=O)N1C[C@H](C(=O)N2CCN(C3(CNCc4ccccc4)CCCCC3)CC2)[C@@H](c2ccc(Cl)cc2)C1
Completion: 47

Prompt: State its Intrinsic activity: CC(C)N1C[C@H](C(=O)N2CCN(C3(CNCc4ccc(F)cc4F)CCCCC3)CC2)[C@@H](c2ccc(Cl)cc2)C1
Completion: 27

###

Reported values: pKi for Melanocortin receptor 4 (Homo sapiens), one per item.
Lab note: report pKi as minus log10 of the concentration in molar units, number only.

Answered examples (3):
• COc1ccc(CN(CC2(N3CCN(C(=O)[C@H]4CN(C(C)C)C[C@@H]4c4ccc(Cl)cc4)CC3)CCCCC2)OC)cc1 = 5.89
• CS(=O)(=O)N1C[C@H](C(=O)N2CCN(C3(CNCc4ccncc4)CCCCC3)CC2)[C@@H](c2ccc(Cl)cc2)C1 = 5.47
• CC(C)N1C[C@H](C(=O)N2CCN(C3(CNCCc4ccccn4)CCCCC3)CC2)[C@@H](c2ccc(Cl)cc2)C1 = 6.16

Now look at this one.
Prompt: State the measured pKi (Melanocortin receptor 4 (Homo sapiens)) of CC(C)N1C[C@H](C(=O)N2CCN(C3(CNCc4ccc(F)cc4)CCCCC3)CC2)[C@@H](c2ccc(Cl)cc2)C1
Completion: 7.36

###

Biological target: Melanocortin receptor 4 (Homo sapiens)
Measurement name: Ki (nM)
Dear colleague, please return just the value in nM, with no unit written.

* O=C([C@H]1CN(Cc2ccccc2)C[C@@H]1c1ccc(Cl)cc1)N1CCN(C2(CNCc3ccccc3)CCCCC2)CC1 | 140
* COCC(C)N1C[C@H](C(=O)N2CCN(C3(CNCc4ccccc4)CCCCC3)CC2)[C@@H](c2ccc(Cl)cc2)C1 (stereo not given in full) | 100
* CC(C)N1C[C@H](C(=O)N2CCN(C3(CNCc4ccc(C(F)(F)F)cc4)CCCCC3)CC2)[C@@H](c2ccc(Cl)cc2)C1 | 130
* CC(C)N1C[C@H](C(=O)N2CCN(C3(CNCc4nccs4)CCCCC3)CC2)[C@@H](c2ccc(Cl)cc2)C1 | 130

Now look at this one.
Prompt: State the measured Ki (Melanocortin receptor 4 (Homo sapiens)) of CC(C)N1C[C@H](C(=O)N2CCN(C3(CNCc4ccccn4)CCCCC3)CC2)[C@@H](c2ccc(Cl)cc2)C1
Completion: 76

###

Target: Melanocortin receptor 4 (Homo sapiens)
Test: Agonist activity at MC4R assessed as stimulation of cAMP release relative to alphaMSH
Type: functional
// reported Intrinsic activity per item
Dear colleague, please return just the value in %, with no unit written.

Answered examples (6):
- O=C([C@H]1CN(Cc2ccccc2)C[C@@H]1c1ccc(Cl)cc1)N1CCN(C2(CNCc3ccccc3)CCCCC2)CC1: 1
- CC(C)N1C[C@H](C(=O)N2CCN(C3(CNS(=O)(=O)Cc4ccccc4)CCCCC3)CC2)[C@@H](c2ccc(Cl)cc2)C1: 40
- CC(C)N1C[C@H](C(=O)N2CCN(C3(CNCc4cccs4)CCCCC3)CC2)[C@@H](c2ccc(Cl)cc2)C1: 58
- CC(C)N1C[C@H](C(=O)N2CCN(C3(CNCc4ccccc4Cl)CCCCC3)CC2)[C@@H](c2ccc(Cl)cc2)C1: 75
- CNCC(=O)N1C[C@H](C(=O)N2CCN(C3(CNCc4ccccc4)CCCCC3)CC2)[C@@H](c2ccc(Cl)cc2)C1: 8
- COCC(C)N1C[C@H](C(=O)N2CCN(C3(CNCc4ccccc4)CCCCC3)CC2)[C@@H](c2ccc(Cl)cc2)C1 (stereo partly drawn): 7

Prompt: State its Intrinsic activity: COc1ccccc1CNCC1(N2CCN(C(=O)[C@H]3CN(C(C)C)C[C@@H]3c3ccc(Cl)cc3)CC2)CCCCC1
Completion: 48

Prompt: State its Intrinsic activity: CC(C)N1C[C@H](C(=O)N2CCN(C3(CNCc4ccccc4)CCCCC3)CC2)[C@@H](c2ccc(Cl)cc2)C1
Completion: 31

Prompt: State its Intrinsic activity: CC(C)N1C[C@H](C(=O)N2CCN(C3(CNCc4ncc[nH]4)CCCCC3)CC2)[C@@H](c2ccc(Cl)cc2)C1
Completion: 69

Prompt: State its Intrinsic activity: CC(C)C(N)C(=O)N1C[C@H](C(=O)N2CCN(C3(CNCc4ccccc4)CCCCC3)CC2)[C@@H](c2ccc(Cl)cc2)C1 (stereo partly drawn)
Completion: 0

Prompt: State its Intrinsic activity: CC(C)N1C[C@H](C(=O)N2CCN(C3(CNCc4cncnc4)CCCCC3)CC2)[C@@H](c2ccc(Cl)cc2)C1
Completion: 66

Prompt: State its Intrinsic activity: COc1ccc(CNCC2(N3CCN(C(=O)[C@H]4CN(C(C)C)C[C@@H]4c4ccc(Cl)cc4)CC3)CCCCC2)c(OC)c1
Completion: 29

Prompt: State its Intrinsic activity: CC(N)C(=O)N1C[C@H](C(=O)N2CCN(C3(CNCc4ccccc4)CCCCC3)CC2)[C@@H](c2ccc(Cl)cc2)C1 (stereo partly drawn)
Completion: 3
